// values below are pIC50; system is UniProt:P51681
Sequence (P51681 whole entry): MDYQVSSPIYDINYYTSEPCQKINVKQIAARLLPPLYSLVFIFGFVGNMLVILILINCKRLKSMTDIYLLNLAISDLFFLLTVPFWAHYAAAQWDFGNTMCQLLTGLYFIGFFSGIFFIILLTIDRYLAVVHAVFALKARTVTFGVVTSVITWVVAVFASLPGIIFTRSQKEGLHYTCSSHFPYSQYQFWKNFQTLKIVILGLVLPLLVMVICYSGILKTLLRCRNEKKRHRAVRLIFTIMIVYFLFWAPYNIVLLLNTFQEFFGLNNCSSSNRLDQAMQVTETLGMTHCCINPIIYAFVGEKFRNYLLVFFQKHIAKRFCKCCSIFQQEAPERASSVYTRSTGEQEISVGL
pIC50: −log10 of the molar value.
endpoint.name: pIC50

> print(dat)
                                   compound  observed.value
1  Cc1cc(C)c(NC(=O)NCC2(O)CCC(Cc3cc(Br)ccc3OCc3ccc(Cl)cc3)CC2)c(C)c1 (stereo unspecified)            7.00
2  O=C(NCC1(O)CCC(Cc2cc(Br)ccc2OCc2ccc(Cl)cc2)CC1)Nc1c(Cl)cc(Cl)cc1Cl (stereo unspecified)            6.35
3        Brc1ccc(COc2ccc(Br)cc2N2CCOCC2)cc1            6.00
4  O=C(NCC1(O)CCC(Cc2cc(Br)ccc2OCc2ccc(Cl)cc2)CC1)Nc1c(Cl)cccc1Cl (stereo unspecified)            7.24

[I] CC/C(=N\NC(=N)N)c1cc(Br)ccc1OCc1ccc(Cl)cc1
[II] CCN(CC)c1cc(Br)ccc1OCc1ccc(Cl)cc1
Which value of pIC50 is numerically greater: that of I or that of II ? Output the label that corresponds to your choice.
I

[1] Cc1cc(Br)cc(C)c1NC(=O)NCC1(O)CCC(Cc2cc(Br)ccc2OCc2ccc(Cl)cc2)CC1 (stereo unspecified)
[2] Cc1ccc(NC(=O)NCC2(O)CCC(Cc3cc(Br)ccc3OCc3ccc(Cl)cc3)CC2)cc1 (stereo unspecified)
[3] CC(C)c1cccc(C(C)C)c1NC(=O)NCC1(O)CCC(Cc2cc(Br)ccc2OCc2ccc(Cl)cc2)CC1 (stereo unspecified)
[4] O=C(NCC1(O)CCC(Cc2cc(Br)ccc2OCc2ccc(Cl)cc2)CC1)Nc1c(F)cccc1F (stereo unspecified)
[5] C/C(=N\NC(=N)N)c1cc(Br)ccc1OCc1ccc(C#N)cc1
Put the items in order so that reported pIC50 rises from first to last. Enter labels, ranked according to the request.
2, 4, 1, 5, 3
(2: 5.82, 4: 6.50, 1: 6.77, 5: 7.03, 3: 7.46)
